Read-out: Matrix Metallopeptidase 1 (MMP1), MMP1 (gene 4312)
Test: BSK_hDFCGF_MMP1: BioMAP Diversity Plus: hDFCGF Assay for Matrix Metallopeptidase 1 (MMP1) Biomarker Activity (AID 2283064)
Conditions: primary human foreskin fibroblasts; actives raise or lower the signal
Calls of active or inactive are those of the source. The calls were made as follows: active = hit-call score of the fitted dose curve at least 0.9, where 1 is the maximum; inactive = score below 0.9.
Parameter call: string, one of active, inactive

Some solved entries appear below for comparison.
{"columns": ["chemical-structure", "group-label"],
 "data": [
  ["O=S(=O)(OCC(F)(F)F)C(F)(F)C(F)(F)C(F)(F)C(F)(F)F", "inactive"],
  ["O=C(Cl)C(F)(F)C(F)(F)C(F)(F)C(F)(F)C(F)(F)C(F)(F)F", "inactive"],
  ["C[C@]12CC[C@H]3C(=CCc4cc(O)ccc43)[C@@H]1CCC2=O", "inactive"]
]}

INPUT: In this assay, the call recorded for Cc1cc(C)c(O)c(C(C)(C)C)c1 was what?
OUTPUT: active

* * *

Read-out: Vascular cell adhesion molecule 1 (VCAM1), VCAM1 (gene 7412)
Experiment: BSK_BF4T_VCAM1: BioMAP Diversity Plus: BF4T Assay for Vascular cell adhesion molecule 1 (VCAM1) Biomarker Activity (AID 2284249)
Conditions: primary human bronchial epithelial cells with fibroblasts
Procedure: BSK_BF4T is a cell-based, multiplexed-readout assay that uses bronchial epithelial cells and dermal fibroblasts, a human vascular primary cell, with measurements taken at 24 hours after chemical dosing in a microplate: 96-well plate.BSK_BF4T_VCAM1 is an assay component measured in the BSK_BF4T assay. […] The levels of cell surface (or secreted, indicated by the prefix "s") biomarker endpoints were measured by ELISA. […] Plates were read after 6 h.
Calls of active or inactive are those of the source. Rule for the calls: active = hit-call score of the fitted dose curve at least 0.9, where 1 is the maximum; inactive = score below 0.9.
endpoint-name: outcome

Check out these entries, answers already filled in.
{"columns": ["compound", "outcome"],
 "data": [
  ["C=C(C)C(=O)OCC(F)(F)C(F)(F)C(F)(F)C(F)F", "inactive"],
  ["NC(=O)C(F)(F)C(F)(F)C(F)(F)C(F)(F)C(N)=O", "inactive"],
  ["NCC(F)(F)C(F)(F)C(F)(F)C(F)(F)C(F)(F)C(F)(F)F", "inactive"],
  ["C[Si](Cl)(Cl)CCC(F)(F)C(F)(F)C(F)(F)C(F)(F)C(F)(F)C(F)(F)F", "inactive"]
]}

Consider the record given below.
INPUT: Endpoint output: outcome of OCC(O)CC(F)(F)C(F)(F)C(F)(F)C(F)(F)C(F)(F)C(F)(F)C(F)(F)C(F)(F)F (stereo not given) . Value?
OUTPUT: inactive

* * *

Read-out: urokinase plasminogen activator (uPA), PLAU (gene 5328)
Assay: BSK_BE3C_uPA: BioMAP Diversity Plus: BE3C Assay for urokinase plasminogen activator (uPA) Biomarker Activity (AID 2283038)
Conditions: primary human bronchial epithelial cells; actives raise or lower the signal
Active and inactive are the calls of the source. The calls were made as follows: active = hit-call score of the fitted dose curve at least 0.9, where 1 is the maximum; inactive = score below 0.9.
Parameter call: string, one of yes (active), no (inactive)

Some solved entries appear below for comparison.
{"columns": ["compound", "group-label"],
 "data": [
  ["CCOC(=O)CC(=O)C(F)(F)C(F)(F)F", "no"],
  ["OCC(O)CC(F)(F)C(F)(F)C(F)(F)C(F)(F)F (configuration not stated)", "no"],
  ["Cc1cc(C)c(O)c(C(C)(C)C)c1", "yes"],
  ["OCCCC(F)(F)C(F)(F)C(F)(F)C(F)(F)C(F)(F)C(F)(F)C(F)(F)C(F)(F)F", "yes"],
  ["Cc1cnccn1", "no"]
]}

INPUT: In this assay, the call recorded for NCC(F)(F)C(F)(F)C(F)(F)C(F)(F)C(F)(F)C(F)(F)C(F)(F)C(F)(F)F was what?
OUTPUT: no

INPUT: In this assay, the call recorded for O=C(O)C(F)(F)C(F)(F)C(F)(F)C(F)(F)C(F)(F)C(F)(F)C(F)F was what?
OUTPUT: no

INPUT: In this assay, the call recorded for OCC(F)(F)C(F)(F)C(F)(F)CO was what?
OUTPUT: no

INPUT: In this assay, the call recorded for Brc1nc2ccccc2s1 was what?
OUTPUT: no

INPUT: In this assay, the call recorded for O=C=Nc1cccc2c(N=C=O)cccc12 was what?
OUTPUT: no

INPUT: In this assay, the call recorded for C=C(C)C(=O)OCC(F)(F)C(F)(F)C(F)(F)C(F)F was what?
OUTPUT: no

INPUT: In this assay, the call recorded for NC(=O)C(F)(F)C(F)(F)C(F)(F)C(F)(F)C(F)(F)C(F)(F)C(F)(F)F was what?
OUTPUT: no

* * *

Target: Hepatocyte nuclear factor 6 (Homo sapiens)
Assay: ATG_HNF6_CIS: Attagene CIS-FACTORIAL HepG2 Assay for human Hepatocyte Nuclear Factor 6 (HNF6) (AID 2282952)
Details: HepG2 Attagene cis-factorial HNF6 reporter transcription; actives raise or lower the signal
Activity calls are given as the source filed them. The calls were made as follows: active = hit-call score of the fitted dose curve at least 0.9, where 1 is the maximum; inactive = score below 0.9.
Parameter call: string, one of active, inactive

Some solved entries appear below for comparison.
{"columns": ["molecule", "measured-target", "group-label"],
 "data": [
  ["Cc1ccc(S(=O)(=O)C(I)I)cc1", "Hepatocyte nuclear factor 6 (Homo sapiens)", "active"],
  ["CCOCOCC", "Hepatocyte nuclear factor 6 (Homo sapiens)", "inactive"],
  ["CCC(C)CO (stereo not given)", "Hepatocyte nuclear factor 6 (Homo sapiens)", "inactive"],
  ["O=S(=O)(O)CCC(F)(F)C(F)(F)C(F)(F)C(F)(F)C(F)(F)C(F)(F)C(F)(F)C(F)(F)F", "Hepatocyte nuclear factor 6 (Homo sapiens)", "inactive"],
  ["CC1=CC2C3C=CC(C3)C2C1C (stereo not given)", "Hepatocyte nuclear factor 6 (Homo sapiens)", "inactive"],
  ["CC(C)OC=O", "Hepatocyte nuclear factor 6 (Homo sapiens)", "inactive"]
]}

INPUT: In this assay, the call recorded for CC1=CCC(=O)O1 was what?
OUTPUT: inactive

INPUT: In this assay, the call recorded for COCCC(=O)OC was what?
OUTPUT: inactive

INPUT: In this assay, the call recorded for OCC(F)(F)C(F)(F)C(F)(F)C(F)(F)C(F)(F)C(F)(F)CO was what?
OUTPUT: inactive

INPUT: In this assay, the call recorded for C=CC(=O)OCC(F)(F)C(F)(F)C(F)(F)C(F)(F)C(F)(F)C(F)(F)C(F)(F)C(F)F was what?
OUTPUT: inactive

INPUT: In this assay, the call recorded for CCCCOC(=O)C(C)O (stereo not given) was what?
OUTPUT: inactive

INPUT: In this assay, the call recorded for OCCCCC(F)(F)C(F)(F)C(F)(F)C(F)(F)F was what?
OUTPUT: inactive

* * *

Experiment: ATG_DR4_LXR_CIS: Attagene CIS-FACTORIAL HepG2 Assay for human Liver X Receptor (LXR), DR4 submotif (AID 2282929)
Settings: HepG2 Attagene DR4 cis-reporter, mRNA transcription; actives raise or lower the signal
Active and inactive are the calls of the source. The calls were made as follows: active = hit-call score of the fitted dose curve at least 0.9, where 1 is the maximum; inactive = score below 0.9.
endpoint-name: outcome

{"columns": ["compound", "outcome"],
 "data": [
  ["CC1=CC2C3C=CC(C3)C2C1C (configuration not stated)", "inactive"],
  ["CC1=CCC2C(=O)OC(=O)C2C1 (configuration not stated)", "inactive"],
  ["Cc1ccc(S(=O)(=O)C(I)I)cc1", "inactive"],
  ["Nc1c(Br)cc([N+](=O)[O-])cc1Br", "inactive"],
  ["CCc1ccc(C)nc1", "inactive"]
]}

INPUT: Endpoint output: outcome of CC(C)(C)c1cc(CCC(=O)NCCCCCCNC(=O)CCc2cc(C(C)(C)C)c(O)c(C(C)(C)C)c2)cc(C(C)(C)C)c1O . Value?
OUTPUT: inactive

INPUT: Endpoint output: outcome of CC(C)OC=O . Value?
OUTPUT: inactive

* * *

Experiment: Tanguay_ZF_120hpf_MO24: Oregon State University Tanguay Lab 24 Hour Post-fertilization zebrafish Assay for Mortality (AID 2284389)
Experimental: Tanguay_ZF_120hpf is a whole embryo, multiplexed endpoint assay using zebrafish larvae exposed for 120 hours post fertilization on a 96-well plate.Tanguay_ZF_120hpf_MO24 is one of one assay component(s) measured or calculated from the Tanguay_ZF_120hpf assay. It is designed to make measurements of zebrafish development as detected with brightfield microscopy of developing zebrafish embryos.Data from the assay component Tanguay_ZF_120hpf_MO24 was analyzed into 1 assay endpoints. […]
The source made the active and inactive calls. Rule for the calls: active = hit-call score of the fitted dose curve at least 0.9, where 1 is the maximum; inactive = score below 0.9.
endpoint-name: outcome

Check out these entries, answers already filled in.
{"columns": ["compound", "outcome"],
 "data": [
  ["O=C(O)CCC(F)(F)C(F)(F)C(F)(F)C(F)(F)C(F)(F)C(F)(F)C(F)(F)F", "inactive"],
  ["OC(O)C(F)(F)C(F)(F)F", "inactive"],
  ["FC(F)(F)C(F)(F)C(F)(F)CC1CO1 (stereo unspecified)", "inactive"],
  ["OCCCC(F)(F)C(F)(F)C(F)(F)C(F)(F)C(F)(F)C(F)(F)C(F)(F)C(F)(F)F", "inactive"],
  ["C=CC(=O)OCCC(F)(F)C(F)(F)C(F)(F)C(F)(F)F", "inactive"]
]}

INPUT: Endpoint output: outcome of COC(F)(C(F)F)C(F)(F)F (stereo unspecified) . Value?
OUTPUT: inactive
